target_under_test: T1, PNGase PUB domain R55A (UniProt Q96IV0 11-109, Arg55 was mutated to Ala)
T1 construct: PNGase PUB domain with Arg55 mutated to Ala; also called PNGase mutant; Arg55 mutated to Ala
T1 sequence (looked up): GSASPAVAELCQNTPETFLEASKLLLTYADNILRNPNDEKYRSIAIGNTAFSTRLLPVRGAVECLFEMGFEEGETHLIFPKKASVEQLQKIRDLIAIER
assay_method_text: fluorescence polarisation; serially diluted PUB domains and HOIP variants mixed with an equal volume of 100 nM FITC-Ahx-labeled peptide; one-site binding model; triplicate
condition: both partners purified
No end group written: not given here. *: point of attachment. FITC = O=C1OC2(c3ccc(O)cc3Oc3cc(O)ccc32)c2ccc(NC(=S)*)cc21; Ahx = NCCCCCC(=O)O

binder	Kd / µM
{FITC-Ahx}-AEHEEDMYRAADEIEKEKE (peptide, UniProt Q96BN8 49-67, looked up, OTULIN, residues 49-67, holds the EEDMYR motif (residues 52-57); also called OTULIN peptide; wild-type OTULIN PIM peptide) [FITC-Ahx-labeled OTULIN PIM peptide (aa 49–67)]	43
{FITC-Ahx}-AEHEEDLYRAADEIEKEKE (peptide, UniProt Q96BN8 49-67, looked up, OTULIN, residues 49-67, Met55 exchanged to Leu (as in p97); also called OTULIN M55L PIM peptide) [fluorescently labeled OTULIN PIM peptide (aa 49–67) M55L]	5
